Where these numbers come from: patent US8563553B2

test.system: b-Raf(V600E) (Homo sapiens (Human), UniProt P15056, V600E)
Sequence (P15056 whole entry V600E): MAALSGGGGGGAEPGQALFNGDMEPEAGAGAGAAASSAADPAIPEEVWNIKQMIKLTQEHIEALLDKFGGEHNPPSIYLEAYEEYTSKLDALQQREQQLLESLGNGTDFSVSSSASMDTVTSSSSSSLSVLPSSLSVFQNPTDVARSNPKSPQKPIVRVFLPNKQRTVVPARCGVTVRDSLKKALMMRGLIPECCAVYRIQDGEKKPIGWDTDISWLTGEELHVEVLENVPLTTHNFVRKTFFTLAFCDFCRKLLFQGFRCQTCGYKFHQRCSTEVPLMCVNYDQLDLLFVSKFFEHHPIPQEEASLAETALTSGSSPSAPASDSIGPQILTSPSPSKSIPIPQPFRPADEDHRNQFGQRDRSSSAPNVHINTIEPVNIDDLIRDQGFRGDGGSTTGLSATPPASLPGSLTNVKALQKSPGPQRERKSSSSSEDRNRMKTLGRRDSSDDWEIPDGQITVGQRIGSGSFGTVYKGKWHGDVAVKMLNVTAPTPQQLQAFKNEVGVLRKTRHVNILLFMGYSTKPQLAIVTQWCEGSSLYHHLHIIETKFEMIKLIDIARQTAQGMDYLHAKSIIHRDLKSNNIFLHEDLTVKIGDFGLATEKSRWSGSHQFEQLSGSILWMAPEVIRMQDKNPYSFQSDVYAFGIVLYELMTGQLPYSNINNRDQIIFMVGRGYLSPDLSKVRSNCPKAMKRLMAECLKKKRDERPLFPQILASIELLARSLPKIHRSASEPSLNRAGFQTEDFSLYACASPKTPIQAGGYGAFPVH
test: Raf/Mek Amplified Luminescence Proximity Homogeneous Assay (Alpha Screen)
measurement.conditions: b-Raf(V600E) approximately 4 pM; biotinylated Mek, kinase dead approximately 10 nM; ATP 10 μM; pre-incubation 60 minutes; reaction 3 hours at room temperature; read-out: mut-B-RAF IC50
Description: Raf/Mek Amplified Luminescence Proximity Homogeneous Assay […] The Raf kinase activity reaction was started by the addition of 10 μL per well of 2×ATP diluted in assay buffer. […] A lid was placed on top of the plate and incubated for 1 hour at room temperature, then the luminescence was read on a PerkinElmer Envision instrument. […]
readout.label: IC50 (nM)

>  <molecule>
Nc1nccc(-c2[nH]c(C3CC3)nc2-c2cc(Cl)cc(NS(=O)(=O)c3c(F)cccc3F)c2F)n1

>  <units.text>
nM

>  <IC50>
0.1

$$$$

(A) COC(=O)N[C@@H](C)CNc1nccc(-c2[nH]c(C(C)(C)C)nc2-c2cccc(NS(C)(=O)=O)c2)n1
(B) COC(=O)N[C@@H](C)CNc1nccc(-c2[nH]c(C(C)(C)C)nc2-c2cc(Cl)cc(NS(=O)(=O)C3CC3)c2)n1
(C) CNc1nccc(-c2[nH]c(C3CC3)nc2-c2cccc(NS(C)(=O)=O)c2F)n1
Order these by IC50, descending, and give the full ranking. // list labels; follow requested order
C, A, B

====

test.system: b-Raf(V600E) (Homo sapiens (Human), UniProt P15056, V600E)
test: Raf/Mek Amplified Luminescence Proximity Homogeneous Assay (Alpha Screen)
measurement.conditions: b-Raf(V600E) approximately 4 pM; biotinylated Mek, kinase dead approximately 10 nM; ATP 10 μM; pre-incubation 60 minutes; reaction 3 hours at room temperature; read-out: mut-B-RAF IC50
readout.label: IC50 (nM)

(a) CCNc1nccc(-c2[nH]c(C3CC3)nc2-c2cc(F)cc(NS(C)(=O)=O)c2Cl)n1
(b) CC1(c2nc(-c3cc(Cl)cc(NS(C)(=O)=O)c3F)c(-c3ccnc(NCCC#N)n3)[nH]2)CC1
(c) Cc1cc(NS(C)(=O)=O)c(Cl)c(-c2nc(C3(C)CC3)[nH]c2-c2ccnc(NCCC#N)n2)c1
Quick one: which order do the items above go in by IC50, smallest to largest? Hello, could you send the labels back in the order asked? Thank you.
b, c, a
(b: 0.11 nM, c: 0.29 nM, a: 11 nM)

====

test.system: b-Raf(V600E) (Homo sapiens (Human), UniProt P15056, V600E)
test: Raf/Mek Amplified Luminescence Proximity Homogeneous Assay (Alpha Screen)
measurement.conditions: b-Raf(V600E) approximately 4 pM; biotinylated Mek, kinase dead approximately 10 nM; ATP 10 μM; pre-incubation 60 minutes; reaction 3 hours at room temperature; read-out: mut-B-RAF IC50
pIC50: −log10 of the molar value.
readout.label: pIC50

Sample records with pIC50:
>  <molecule>
COC(=O)N[C@@H](C)CNc1nccc(-c2[nH]c(C(C)(C)C)nc2-c2cc(Cl)cc(NS(=O)(=O)C(C)C)c2)n1

>  <quantitative.readout>
8.87

$$$$
>  <molecule>
CS(=O)(=O)Nc1cccc(-c2nc(C3CC3)[nH]c2-c2ccnc(NCC3(C#N)CC3)n2)c1Cl

>  <quantitative.readout>
7.46

$$$$
>  <molecule>
COC(=O)N[C@@H](C)CNc1nccc(-c2[nH]c(C3CC3)nc2-c2cc(C)cc(NS(C)(=O)=O)c2Cl)n1

>  <quantitative.readout>
8.96

$$$$

(1) COC(=O)N[C@@H](C)CNc1nccc(-c2[nH]c(C(C)(C)C)nc2-c2cccc(NS(=O)(=O)CCC(F)(F)F)c2F)n1
(2) CS(=O)(=O)Nc1cc(Cl)cc(-c2nc(C3CC3)[nH]c2-c2ccnc(NCCC#N)n2)c1F
(3) COC(=O)N[C@@H](C)CNc1nccc(-c2nc(C3CC3)[nH]c2-c2cc(Cl)cc(NS(=O)(=O)CC3CC3)c2F)n1
(4) COC(=O)N[C@@H](C)CNc1nccc(-c2[nH]c(C(C)(C)C)nc2-c2cc(NS(=O)(=O)C(C)C)c(C)c(OC)c2)n1
Put the items in sequence by pIC50, from largest down. // respond by listing labels in the order requested
2, 3, 1, 4
(2: 10.10, 3: 9.59, 1: 8.97, 4: 6.72)
